- test: Biodistribution of 18F-labelled tracers in rats
- Assay type: in vivo
- condition: rats; 30 min; corrected for decay of 18F
measurement_type: Biodistribution: Lungs
Answer by giving the amount and then stating its unit.

Recorded Biodistribution: Lungs, per entry:
Which Biodistribution: Lungs reading was recorded for the compound `CCN(CC)C(=O)Cc1c(-c2ccc(OCCCF)cc2)nc2ccc(Cl)cn12` ?
8.41 ± 0.77 % ID/g

Which Biodistribution: Lungs reading was recorded for the compound `CCN(CC)C(=O)Cc1c(-c2ccc(OCCCF)cc2)nn2c(C)cc(C)nc12` ?
12.36 ± 1.28 % ID/g

Which Biodistribution: Lungs reading was recorded for the compound `CCN(CC)C(=O)Cc1c(-c2ccc(OCCF)cc2)nc2ccc(Cl)cn12` ?
12.10 ± 1.98 % ID/g

Attention now shifts to the item below.
Which Biodistribution: Lungs reading was recorded for the compound `CCN(CC)C(=O)Cc1c(-c2ccc(C(C)(C)C)cc2)nc2ccc([18F])nn12` ?
11.58 ± 2.11 % ID/g
